Reference source: PubChem BioAssay (NCI)

experiment: NCI Yeast Anticancer Drug Screen. Data for the bub3 strain (AID 167); conditions: S. cerevisiae bub3 mutant strain, at 50.0 µM, stronger effect = higher value
The panel holds about 79,000 compounds, 15% with a hit somewhere; the sample as a whole holds those more often.
growth inhibition values for the compounds below.
# output: bare number, implied unit %

| COMPOUND | growth inhibition (%) |
| --- | --- |
| COc1cc(CNc2nc3c(NC(C)=O)cc(C(F)(F)F)cc3nc2-c2ccccc2)cc(OC)c1OC | 10.8 |

Which growth inhibition value is on record for c1ccc(N2CCN(c3ccccc3)C2)cc1 ?
9.1

Reported growth inhibition, compound CCOc1c(N=Nc2ccccc2OC)c(-c2ccccc2)nn1C(=S)S : ____
66.7

growth inhibition for N#CCC(=O)N/N=C\C(O)C(O)C(O)C(O)CO (stereo not drawn) ?
4.5

Query (compound): O=C(Nc1ccc(F)cc1)c1cc2c(cc1Cl)Sc1nccn1S2(=O)=O ; field requested: growth inhibition
3.55

Give the measured growth inhibition of NNC(=O)c1n[nH]n(N)c1=S .
-8.65

Report growth inhibition for Cn1c2ccc(Br)cc2c2cc(Br)cc([N+](=O)[O-])c21 please.
-2.05

// returns reported growth inhibition for input CCOC(=O)C(=O)Cc1ccccc1[N+](=O)[O-]
-3.8

Give the measured growth inhibition of CS(=O)(=O)N(CCC#N)c1ccc(/C=N/NC(=O)CC(=O)Nc2cccc(Cl)c2)cc1 .
-6.15

// returns reported growth inhibition for input CC(C)C(NC(=O)C1CCCN1)P(=O)(O)O (stereo not drawn)
5

Would you mind telling me what growth inhibition value was observed for CCc1ccc(C(=O)CN2CCCc3ccccc32)cc1 ?
1.95

I would be grateful if you could share the reported growth inhibition for O=C(O)CCC(NC(=O)/C(=C/c1ccccc1)NC(=O)c1ccccc1)C(=O)O (stereo not drawn) .
18.2

Request the reported growth inhibition associated with Cn1c(-c2ccc(/C=N/N=C(N)N)cc2)c[n+]2ccccc12
-3.85

Entry COc1ccc(OC)c(CC(N)=O)c1 : reported growth inhibition = ?
21.4

Using the record for Cc1nnc(-n2nc(-c3ccc(Cl)cc3)cc2N)[nH]c1=O , report its growth inhibition.
23.4

Would you mind telling me what growth inhibition value was observed for NCc1ccccc1 ?
-18.9

----------
In this section we review reported growth inhibition values for a set of compounds.
assay: NCI Yeast Anticancer Drug Screen. Data for the cln2 rad14 strain (AID 165);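 note: 0% = growth equal to vehicle treated cultures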; settings: S. cerevisiae cln2 rad14 strain, at 50.0 µM, stronger effect = higher value
This is part of a sample that, as a whole, favours compounds with a hit. Of some 79,000 tested, about 15% had one in any assay.
Value expressed in %; do not type the unit.

// worked examples, growth inhibition included
| COMPOUND | MEASUREMENT_UNITS | growth inhibition |
| --- | --- | --- |
| C=CCCC(=O)CC(=O)OCC | % | 10.3 |
| Cc1cccc(C2ON=C(c3ccccc3)N2C23CC4CC(CC(C4)C2)C3)c1 (stereo not drawn) | % | -2.45 |
| Cn1c(=O)c2snnc2n(C)c1=O | % | -9.5 |

Please turn your attention to the following entry.
Reported growth inhibition for Oc1ccc2ccccc2c1-c1c(OC(c2ccccc2)c2ccccc2)ccc2ccccc12 : what is it?
-29.4

----------
assay: NCI Yeast Anticancer Drug Screen. Data for the bub3 strain (AID 167); settings: S. cerevisiae bub3 mutant strain, at 50.0 µM, stronger effect = higher value
The panel holds about 79,000 compounds, 15% with a hit somewhere; the sample as a whole holds those more often. Calls of active or inactive are those of the source. Rule as the data show it: active = growth inhibition above about 70%; inactive = the rest.
Entries and their growth inhibition

| MOLECULE | EXPERIMENTAL_ENDPOINT | OBSERVED_RESULT |
| --- | --- | --- |
| C(=N\c1nnc2ccccn12)/c1ccccc1 | growth inhibition | -13.7% (inactive) |
| Cc1cc(S(=O)(=O)Nc2n[nH]c(N)n2)c(Cl)cc1Cl | growth inhibition | 9.4% (inactive) |
| CN(Nc1c([N+](=O)[O-])cc([N+](=O)[O-])cc1[N+](=O)[O-])c1ccc2ccccc2c1 | growth inhibition | 7.2% (inactive) |
| O=C1CCCc2[nH]c3ccc(Cl)cc3c21 | growth inhibition | -14.2% (inactive) |
| CN(C)C=Nc1cc2c3c(c1)CCCN3CCC2 | growth inhibition | -2.6% (inactive) |

Turning to the following molecule.
For the molecule Cn1c(CC(O)c2nc3ccccc3n2C)nc2ccccc21 (centres undefined) , what growth inhibition is on record?
-23.8% (inactive)

----------
test: NCI Yeast Anticancer Drug Screen. Data for the mec2-1 strain (AID 157); conditions: S. cerevisiae mec2-1 strain, at 50.0 µM, stronger effect = higher value
About 79,000 compounds went through this panel and 15% of them were active in at least one assay; those are over-represented in the sample as a whole. Activity calls are given as the source filed them. Rule as the data show it: active = growth inhibition above about 70%; inactive = the rest.
EXPERIMENTAL_ENDPOINT: growth inhibition

Would you please look over these solved cases?
| COMPOUND | EXPERIMENTAL_ENDPOINT | OBSERVED_RESULT |
| --- | --- | --- |
| CC1(C)CC(C2CC(C)(C)CC(C)(C)[C@H]2O)[C@@H](O)C(C)(C)C1 (stereo partly specified) | growth inhibition | -2.3% (inactive) |
| CC(=O)NC(Cc1ccc(C)cc1)C(=O)O (stereo unspecified) | growth inhibition | -3.75% (inactive) |
| O=C(COc1cc(Cl)c(Cl)cc1Cl)Oc1ccccc1 | growth inhibition | 4.95% (inactive) |
| NC(Cc1c(F)c(F)c(F)c(F)c1F)C(=O)O (stereo unspecified) | growth inhibition | 2.95% (inactive) |
| NC(=S)NNC(=O)c1ccncc1 | growth inhibition | -3.1% (inactive) |
| Nc1ccc2c(c1)CC1CC(=O)NN=C21 (stereo unspecified) | growth inhibition | 9.95% (inactive) |
| O=C(/C=C(\N=P(c1ccccc1)(c1ccccc1)c1ccccc1)C(F)(F)C(F)(F)C(F)(F)C(F)(F)C(F)(F)C(F)(F)C(F)(F)F)c1ccccc1 | growth inhibition | -13.2% (inactive) |
| CCOC(=O)C1(C(=O)OCC)CCCCC1=O | growth inhibition | -15.2% (inactive) |

What measured growth inhibition goes with CC(=O)c1ccc2c(Br)ccc3c2c1CC3 ?
10.3% (inactive)

For C=C(C)C(=O)OC1CC2(C)OC2CC(OC(C)=O)/C(C)=C/C2OC(=O)C(=C)C21 (stereo unspecified) , what is its reported growth inhibition?
49.7% (inactive)

Returns the measured growth inhibition for the input compound. Input: COC(=O)c1c2c(cc3c1CC1(Cc4cc5c(cc4C1)CCCC5)C3)CCCC2
-16.4% (inactive)

----------
assay: NCI Yeast Anticancer Drug Screen. Data for the bub3 strain (AID 167); settings: S. cerevisiae bub3 mutant strain, at 50.0 µM, stronger effect = higher value
About 79,000 compounds went through this panel and 15% of them were active in at least one assay; those are over-represented in the sample as a whole.
EXPERIMENTAL_ENDPOINT: growth inhibition (%)
Just the number please, in %, no unit attached.

Check out these entries, answers already filled in.
| MOLECULE | MEASUREMENT_UNITS | OBSERVED_RESULT |
| --- | --- | --- |
| CC1(O)CC2(O)C=CC3=C(C(=O)c4cccc(O)c4C3=O)C2(O)C(=O)C1O (stereo unspecified) | % | 22.9 |
| C[N+]1(C)CCCC(O)(C(=O)c2ccccc2)C1 (stereo unspecified) | % | -2.4 |
| CC(CCNC(=S)S)CC(C)(C)C.[Zn+2] (stereo unspecified) | % | -4.65 |
| Cc1cccc2c1-c1c(C)cccc1C(Cl)S(=O)(=O)C2 (stereo unspecified) | % | 6.85 |
| CC(C)(C)OC(=O)CC(O)c1ccccc1 (stereo unspecified) | % | -3.7 |

Here is another molecule to look at.
Which growth inhibition is reported for this molecule? O=C1OC2CC3CC2C1C3C(=O)N1CCCCC1 (stereo unspecified)
-9.65

----------
Catalogue of compounds with associated growth inhibition
test: NCI Yeast Anticancer Drug Screen. Data for the cln2 rad14 strain (AID 165);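 note: 0% = growth equal to vehicle treated cultures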; details: S. cerevisiae cln2 rad14 strain, at 50.0 µM, stronger effect = higher value
The panel holds about 79,000 compounds, 15% with a hit somewhere; the sample as a whole holds those more often.
Only the number, expressed in %, is required.

| COMPOUND | MEASUREMENT_UNITS | OBSERVED_RESULT |
| --- | --- | --- |
| COC(=O)C1(CC(=O)/C=C/c2ccccc2)NC(=S)NC(=O)C1C#N (stereo not given) | % | 10.1 |
| CC(C)(c1ccc(C(=O)O)cc1)c1ccc(C(=O)O)cc1 | % | -5.7 |

Report growth inhibition for O=c1/c(=C/c2ccc(Cl)cc2Cl)sc2nc3ccccc3n12 please.
-12.8

Field request: growth inhibition | item: Cn1c2ccccc2c2nn3cnnc3nc21
25.5

So what's the measured growth inhibition for this one? Cc1cc(O)c2c(c1)C(=O)c1c(-c3ccc(O)c4c3C(=O)c3c(O)c(C)cc(O)c3C4=O)ccc(O)c1C2=O
9.05

Consider the compound shown here: Cc1ccnc(=O)[nH]1 What is its recorded growth inhibition?
8.45

Look up growth inhibition for this compound: N#CC(C#N)=CNC(=S)Nc1ccc(Cl)c(Cl)c1
37.7

Please look up its growth inhibition: O=C1c2ccccc2C(=O)c2[nH]ncc21
-61.6

Form field: reported growth inhibition of O=[N+]([O-])c1ccc(S(=O)(=O)c2ccc(N=Cc3ccc(C=Nc4ccc(S(=O)(=O)c5ccc([N+](=O)[O-])cc5)cc4)cc3)cc2)cc1
-5.45

GET /values?readout=growth inhibition&item= O=C(O)C(O)C(O)C(O)C(O)C(O)CO.[NH-]C1CCCCC1[NH-].[Pt+2] (stereo not given)
7.4
